test: first-order primary biodegradation rate constant k (sorption-corrected, fDis-corrected) (d-1); higher = faster biodegradation; settings: river segment: Germany (DE) H_Contam; incubation temperature 24 °C
Quick reference: first-order primary biodegradation rate constant k of the listed items.
Just the number, please, no unit attached.

Example compounds with recorded first-order primary biodegradation rate constant k:
C=CCOc1ccccc1OCC(O)CNC(C)C (configuration not stated)	0.0433
CC(C)NCC(O)COc1cccc2ccccc12 (configuration not stated)	0.231
COc1cc(NS(=O)(=O)c2ccc(N)cc2)nc(OC)n1	0.129
Nc1ccc(S(=O)(=O)Nc2nccs2)cc1	0.0753

Input Cc1ccc2n[nH]nc2c1 . Output first-order primary biodegradation rate constant k: 0.0462

Input COc1cccc(C2(O)CCCCC2CN(C)C)c1 (configuration not stated) . Output first-order primary biodegradation rate constant k: 0.0149

Input NS(=O)(=O)c1cc(C2(O)NC(=O)c3ccccc32)ccc1Cl (configuration not stated) . Output first-order primary biodegradation rate constant k: 0.0136

Input O=S(=O)(O)NC1CCCCC1 [Cyclamate] . Output first-order primary biodegradation rate constant k: 0.0317

Input Cc1cccc(Nc2ccccc2C(=O)O)c1C . Output first-order primary biodegradation rate constant k: 0.0696

Input COc1ccc(NS(=O)(=O)c2ccc(N)cc2)nn1 . Output first-order primary biodegradation rate constant k: 0.0977

Input CN(C)C(=O)Nc1ccc(Cl)c(Cl)c1 . Output first-order primary biodegradation rate constant k: 0.127

Input CC1(C(=O)Nc2ccc(O)c(Cl)c2Cl)CCCCC1 . Output first-order primary biodegradation rate constant k: 0.151

Input CC(C)(Oc1ccc(Cl)cc1)C(=O)O . Output first-order primary biodegradation rate constant k: 0.0901

Input Cc1cc(Cl)ccc1OC(C)C(=O)O (configuration not stated) . Output first-order primary biodegradation rate constant k: 0.0948

Input CCCCc1nc(Cl)c(CO)n1Cc1ccc(-c2ccccc2-c2nnn[nH]2)cc1 . Output first-order primary biodegradation rate constant k: 0.417

====

assay: first-order primary biodegradation rate constant k (sorption-corrected, fDis-corrected) (d-1); higher = faster biodegradation; settings: river segment: Germany (DE) T_Contam; incubation temperature 24 °C
Structures can show the parent of a compound that is named as a salt.
Quick reference: first-order primary biodegradation rate constant k of the listed items.
Just the number, please, no unit attached.

Example compounds with recorded first-order primary biodegradation rate constant k:
O=[N+]([O-])c1ccc(Cc2ccncc2)cc1	1.05
CCc1cccc(CC)c1N(COC)C(=O)CCl	0.612
CC(=O)NC[C@H]1CN(c2ccc(N3CCOCC3)c(F)c2)C(=O)O1	0.0934
CCOC(=O)CC(O)(CC(=O)OCC)C(=O)OCC [Triethyl citrate]	0.275
CN(C)C(=O)Nc1ccc(Cl)c(Cl)c1	0.147

Input Cc1cc(O)cc(C)c1Cl . Output first-order primary biodegradation rate constant k: 2.27

Input NS(=O)(=O)c1cc2c(cc1Cl)N=CNS2(=O)=O [Chlorothiazide] . Output first-order primary biodegradation rate constant k: 0.0266

====

assay: first-order primary biodegradation rate constant k (sorption-corrected, fDis-corrected) (d-1); higher = faster biodegradation; settings: river segment: Spain (ES) F_Pris_Salt; incubation temperature 24 °C
attribute_measured: first-order primary biodegradation rate constant k
Just the number, please, no unit attached.

COc1cc(Cc2cnc(N)nc2N)cc(OC)c1OC [Trimethoprim]	0.726
CC1(C(=O)Nc2ccc(O)c(Cl)c2Cl)CCCCC1 [Fenhexamid]	0.0571
Cc1cc(Cl)ccc1OC(C)C(=O)O (centres undefined) [Mecoprop]	0.0616
COC(=O)Nc1nc2ccccc2[nH]1 [Carbendazim]	0.03
C=CCOc1ccccc1OCC(O)CNC(C)C (centres undefined) [Oxprenolol]	0.426
NS(=O)(=O)c1cc2c(cc1Cl)N=CNS2(=O)=O [Chlorothiazide]	0.166
C#CCN(C)Cc1ccccc1 [Pargyline]	0.179
CC(C)(Oc1ccc(CCNC(=O)c2ccc(Cl)cc2)cc1)C(=O)O [Bezafibrate]	0.0229

Proceeding to the next molecule to report its first-order primary biodegradation rate constant k.
Input CC(C)(C)C(=O)C(Oc1ccc(Cl)cc1)n1ccnc1 (centres undefined) [Climbazole] . Output first-order primary biodegradation rate constant k: 0.0487

====

assay: first-order primary biodegradation rate constant k (sorption-corrected, fDis-corrected) (d-1); higher = faster biodegradation; settings: river segment: Switzerland (CH) U_Contam; incubation temperature 17 °C
Structures can show the parent of a compound that is named as a salt.
attribute_measured: first-order primary biodegradation rate constant k
Just the number, please, no unit attached.

CCOC(=O)CC(O)(CC(=O)OCC)C(=O)OCC [Triethyl citrate]	0.127
CC(C(=O)O)c1cccc(C(=O)c2ccccc2)c1 (stereo unspecified)	1.21
NC(=O)c1cn(Cc2c(F)cccc2F)nn1 [Rufinamide]	0.383

Input CC(=O)Nc1ccc(O)cc1 . Output first-order primary biodegradation rate constant k: 2.14

Input CCc1cccc(CC)c1N(COC)C(=O)CCl . Output first-order primary biodegradation rate constant k: 0.349

====

assay: first-order primary biodegradation rate constant k (sorption-corrected, fDis-corrected) (d-1); higher = faster biodegradation; conditions: river segment: Germany (DE) H_Contam; incubation temperature 24 °C
attribute_measured: first-order primary biodegradation rate constant k
Just the number, please, no unit attached.

CCc1cccc(CC)c1N(COC)C(=O)CCl	0.0727

Input CC(C)c1ccc(NC(=O)N(C)C)cc1 . Output first-order primary biodegradation rate constant k: 0.0107

Input Cc1cc(O)cc(C)c1Cl . Output first-order primary biodegradation rate constant k: 1.4

Input COC(=O)Nc1nc2ccccc2[nH]1 . Output first-order primary biodegradation rate constant k: 0.0157

Input COCCc1ccc(OCC(O)CNC(C)C)cc1 (configuration not stated) . Output first-order primary biodegradation rate constant k: 0.297

Input O=[N+]([O-])/N=C1\NCCN1Cc1ccc(Cl)nc1 . Output first-order primary biodegradation rate constant k: 0.029

Input CCCCC(=O)N(Cc1ccc(-c2ccccc2-c2nnn[nH]2)cc1)[C@H](C(=O)O)C(C)C . Output first-order primary biodegradation rate constant k: 0.469

Input c1ccc2[nH]nnc2c1 . Output first-order primary biodegradation rate constant k: 0.0409

Input CC(C(=O)O)c1cccc(C(=O)c2ccccc2)c1 (configuration not stated) . Output first-order primary biodegradation rate constant k: 0.108

Input O=C1Nc2ccc(Cl)cc2C(c2ccccc2)=NC1O (configuration not stated) . Output first-order primary biodegradation rate constant k: 0.0405

Input CCOc1ccccc1OCCN[C@H](C)Cc1ccc(OC)c(S(N)(=O)=O)c1 . Output first-order primary biodegradation rate constant k: 0.0512

Input COC(=O)c1ccc(O)cc1 . Output first-order primary biodegradation rate constant k: 0.119

Input CCN(CC)CC(=O)Nc1c(C)cccc1C . Output first-order primary biodegradation rate constant k: 0.0105

Input CCNc1nc(Cl)nc(NC(C)C)n1 . Output first-order primary biodegradation rate constant k: 0.0725

Input O=C(O)Cc1ccccc1Nc1c(Cl)cccc1Cl . Output first-order primary biodegradation rate constant k: 0.137

Input Cc1ccc(C)c(OCCCC(C)(C)C(=O)O)c1 . Output first-order primary biodegradation rate constant k: 0.143

Input Cc1cc(NS(=O)(=O)c2ccc(N)cc2)no1 . Output first-order primary biodegradation rate constant k: 0.0889

====

assay: first-order primary biodegradation rate constant k (sorption-corrected, fDis-corrected) (d-1); higher = faster biodegradation; details: river segment: Germany (DE) H_Contam; incubation temperature 24 °C
Short version: first-order primary biodegradation rate constant k at least 0.1 is Fulfilled, less is Not fulfilled.

Worked examples, 5 compounds total:
CN(Cc1cnc2nc(N)nc(N)c2n1)c1ccc(C(=O)N[C@@H](CCC(=O)O)C(=O)O)cc1 [Methotrexate]	Fulfilled
CC(C)NCC(O)c1ccc(NS(C)(=O)=O)cc1 (stereo not given) [Sotalol]	Fulfilled
NC(=O)c1cn(Cc2c(F)cccc2F)nn1 [Rufinamide]	Fulfilled
CN(C)CCN1C(=O)c2ccccc2N(C)c2ccccc21 [Dibenzepin]	Not fulfilled
Cc1ccc(C(C)NC(=O)[C@@H](NC(=O)OC(C)C)C(C)C)cc1 (stereo not given in full) [Iprovalicarb]	Fulfilled

Input line: Is the recorded value of first-order primary biodegradation rate constant k equal to or greater than 0.1 for this compound? CN(C)C(=N)NC(=N)N [Metformin]
Output line: Not fulfilled

Input line: Is the recorded value of first-order primary biodegradation rate constant k equal to or greater than 0.1 for this compound? Cc1ccc(S(=O)(=O)O)cc1 [p-Toluenesulfonic acid]
Output line: Fulfilled

Input line: Is the recorded value of first-order primary biodegradation rate constant k equal to or greater than 0.1 for this compound? Cn1c(=O)c2c(ncn2C)n(C)c1=O [Caffeine]
Output line: Fulfilled

Input line: Is the recorded value of first-order primary biodegradation rate constant k equal to or greater than 0.1 for this compound? C/C(=N\C#N)N(C)Cc1ccc(Cl)nc1 [Acetamiprid]
Output line: Not fulfilled

Input line: Is the recorded value of first-order primary biodegradation rate constant k equal to or greater than 0.1 for this compound? O=[N+]([O-])c1ccc(Cc2ccncc2)cc1 [4-(4-Nitrobenzyl)pyridine]
Output line: Fulfilled
